Data origin: patent US20240123080A1

# Tested on: Karpas299 NHL
# assay-info: In vitro cytotoxicity, cell proliferation assay (CellTiter-Glo, 96 h)
# Format: cell-based
# condition-notes: Homo sapiens, KARPAS-299, auristatin free drug
Where a SMILES comes first, the peptide text is derived from it. [ ]: non-standard residue; d: D form. The star is where a group is joined. Dolaproine = CO[C@@H]([C@@H]1CCCN1)[C@@H](C)C(=O)O; Dil = CC[C@H](C)[C@H](NC)[C@@H](CC(=O)O)OC; Phe(ol) = N[C@H](CO)Cc1ccccc1; X2 = CN(C)[C@@H](CO)C(=O)*
value-type: IC50 (nM)
Answers are plain numbers, in nM.

Consider the compound shown here: CC[C@H](C)[C@@H]([C@@H](CC(=O)N1CCC[C@H]1[C@H](OC)[C@@H](C)C(=O)N[C@H](CO)Cc1ccccc1)OC)N(C)C(=O)[C@@H](NC(=O)[C@H](CO)N(C)C)C(C)C [Example 8] (X2-V[Dil][Dolaproine][Phe(ol)]) What is its recorded IC50?
1.4

###

# Test system: Sprague Dawley rats
# assay-info: In vivo rat safety study of non-binding (h00) ADCs, hematology and clinical chemistry
# condition-notes: ADC of the Drug-Linker
*1 amine or outer side, *2 acyl side, *3 side chain or, on linkers, in order; H or OH if unused. Where a SMILES comes first, the peptide text is derived from it. [ ]: non-standard residue; d: D form. The star is where a group is joined. Dolaproine = CO[C@@H]([C@@H]1CCCN1)[C@@H](C)C(=O)O; Hexanoyl(6-maleimido) = O=C1C=CC(=O)N1CCCCCC(=O)*; Propanoyl(3-maleimido) = O=C1C=CC(=O)N1CCC(=O)*; Dil = CC[C@H](C)[C@H](NC)[C@@H](CC(=O)O)OC; PABC = O=C(OCc1ccc(N[*:1])cc1)[*:2]; Doe = c1ccc(C[C@H](N*)c2nccs2)cc1; Cit = NC(=O)NCCC[C@H](N)C(=O)O; Phe(ol) = N[C@H](CO)Cc1ccccc1; NMeS = CN[C@@H](CO)C(=O)O
value-type: Tolerated at 80 mg/kg in rats

>>> obs_value("CC[C@H](C)[C@@H]([C@@H](CC(=O)N1CCC[C@H]1[C@H](OC)[C@@H](C)C(=O)N[C@H](CO)Cc1ccccc1)OC)N(C)C(=O)[C@@H](NC(=O)[C@H](CO)N(C)C(=O)OCc1ccc(NC(=O)[C@H](CCCNC(N)=O)NC(=O)[C@@H](NC(=O)CCCCCN2C(=O)C=CC2=O)C(C)C)cc1)C(C)C [Example 61] ({Hexanoyl(6-maleimido)}-V[Cit][PABC][NMeS]V[Dil][Dolaproine][Phe(ol)])")
"Yes"
>>> obs_value("CC[C@H](C)[C@@H]([C@@H](CC(=O)N1CCC[C@H]1[C@H](OC)[C@@H](C)C(=O)N[C@@H](Cc1ccccc1)c1nccs1)OC)N(C)C(=O)[C@@H](NC(=O)[C@H](CO)N(C)C(=O)OCc1ccc(NC(=O)[C@H](CCC(=O)O)NC(=O)[C@H](C)NC(=O)[C@@H](CC(C)C)NC(=O)CCN2C(=O)C=CC2=O)cc1)C(C)C [Example 79] ({Propanoyl(3-maleimido)}-[dL]AE[PABC][NMeS]V[Dil][Dolaproine]-Doe)")
"No"
>>> obs_value("CC[C@H](C)[C@@H]([C@@H](CC(=O)N1CCC[C@H]1[C@H](OC)[C@@H](C)C(=O)N[C@@H](Cc1ccccc1)c1nccs1)OC)N(C)C(=O)[C@@H](NC(=O)[C@H](CO)N(C)C(=O)OCc1ccc(NC(=O)[C@H](CCC(=O)O)NC(=O)[C@H](C)NC(=O)[C@@H](CC(C)C)NC(=O)CCN2C(=O)C=CC2=O)cc1)[C@@H](C)CC [Example 80] ({Propanoyl(3-maleimido)}-[dL]AE[PABC][NMeS]I[Dil][Dolaproine]-Doe)")
"Yes"

###

# Tested on: L540cy HL
# assay-info: In vitro cytotoxicity, cell proliferation assay (CellTiter-Glo, 96 h)
# Type: cell-based
# condition-notes: auristatin free drug
# Description: The cytotoxicity of free drugs and drug conjugates were measured by a cell proliferation assay employing the protocol described in Promega Corp. Technical Bulletin TB288; and Mendoza et al., 2002, Cancer Res. 62:5485-5488), the methods of which are specifically incorporated by reference herein. […] The contents are mixed for 2 minutes on an orbital shaker to induce cell lysis and the plate is incubated at room temperature for 10 minutes to stabilize the luminescence signal for recordation.
Where a SMILES comes first, the peptide text is derived from it. [ ]: non-standard residue; d: D form. The star is where a group is joined. ξ: configuration not given here. Dolaproine = CO[C@@H]([C@@H]1CCCN1)[C@@H](C)C(=O)O; Dil = CC[C@H](C)[C@H](NC)[C@@H](CC(=O)O)OC; X1 = C[C@@H](N*)[C@@H](O)c1ccccc1; ξαMeS = CC(N)(CO)C(=O)O
value-type: pIC50
Answers are plain numbers, as −log10 of the molar value.

Enter reported pIC50 observed with L540cy HL for CC[C@H](C)[C@@H]([C@@H](CC(=O)N1CCC[C@H]1[C@H](OC)[C@@H](C)C(=O)N[C@H](C)[C@@H](O)c1ccccc1)OC)N(C)C(=O)[C@@H](NC(=O)C(C)(N)CO)C(C)C (some centres unmarked) [Example 33] (H-[ξαMeS]V[Dil][Dolaproine]-X1)
8.19

###

# Test system: Sprague Dawley rats
# assay-info: In vivo rat safety study of non-binding (h00) ADCs, hematology and clinical chemistry
# condition-notes: ADC of the Drug-Linker
*1 amine or outer side, *2 acyl side, *3 side chain or, on linkers, in order; H or OH if unused. Where a SMILES comes first, the peptide text is derived from it. [ ]: non-standard residue; d: D form. The star is where a group is joined. Dolaproine = CO[C@@H]([C@@H]1CCCN1)[C@@H](C)C(=O)O; Propanoyl(3-maleimido) = O=C1C=CC(=O)N1CCC(=O)*; Dil = CC[C@H](C)[C@H](NC)[C@@H](CC(=O)O)OC; PABC = O=C(OCc1ccc(N[*:1])cc1)[*:2]; NHPhenethyl = c1ccc(CCN*)cc1; NMeS = CN[C@@H](CO)C(=O)O
value-type: Tolerated at 80 mg/kg in rats

>>> obs_value("CC[C@H](C)[C@@H]([C@@H](CC(=O)N1CCC[C@H]1[C@H](OC)[C@@H](C)C(=O)NCCc1ccccc1)OC)N(C)C(=O)[C@@H](NC(=O)[C@H](CO)N(C)C(=O)OCc1ccc(NC(=O)[C@H](CCC(=O)O)NC(=O)[C@H](C)NC(=O)[C@@H](CC(C)C)NC(=O)CCN2C(=O)C=CC2=O)cc1)C(C)C [Example 78] ({Propanoyl(3-maleimido)}-[dL]AE[PABC][NMeS]V[Dil][Dolaproine]-NHPhenethyl)")
"Yes"

###

# System: L540cy HL
# assay-info: In vitro cytotoxicity, cell proliferation assay (CellTiter-Glo, 96 h)
# Type: cell-based
# condition-notes: auristatin free drug
Where a SMILES comes first, the peptide text is derived from it. [ ]: non-standard residue; d: D form. The star is where a group is joined. Dolaproine = CO[C@@H]([C@@H]1CCCN1)[C@@H](C)C(=O)O; Dil = CC[C@H](C)[C@H](NC)[C@@H](CC(=O)O)OC; Val(3-OH) = CC(C)(O)[C@H](N)C(=O)O; X1 = C[C@@H](N*)[C@@H](O)c1ccccc1; Phe(ol) = N[C@H](CO)Cc1ccccc1; X8 = CN1C(=O)OC[C@H]1C(=O)*; hSer = N[C@@H](CCO)C(=O)O; X7 = O=C1NC(C(=O)*)CCO1
value-type: log10 of IC50 (log10 of the value in nM)
// do not treat as linear: log10 of IC50, unit nM

Below are worked cases with known answers.
>>> obs_value("CC[C@H](C)[C@@H]([C@@H](CC(=O)N1CCC[C@H]1[C@H](OC)[C@@H](C)C(=O)NC(Cc1ccccc1)c1ncco1)OC)N(C)C(=O)[C@@H](NC(=O)[C@H](CO)N(C)C)C(C)C (stereo partly drawn) [Example 56]")
1.38
>>> obs_value("CC[C@H](C)[C@@H]([C@@H](CC(=O)N1CCC[C@H]1[C@H](OC)[C@@H](C)C(=O)N[C@H](CO)Cc1ccccc1)OC)N(C)C(=O)[C@@H](NC(=O)C1CCOC(=O)N1)C(C)C (stereo partly drawn) [Example 41] (X7-V[Dil][Dolaproine][Phe(ol)])")
2.66
>>> obs_value("CC[C@H](C)[C@@H]([C@@H](CC(=O)N1CCC[C@H]1[C@H](OC)[C@@H](C)C(=O)N[C@H](CO)Cc1ccccc1)OC)N(C)C(=O)[C@@H](NC(=O)[C@@H](N)CCO)C(C)C [Example 24] (H-[hSer]V[Dil][Dolaproine][Phe(ol)])")
2.79
>>> obs_value("CC[C@H](C)[C@@H]([C@@H](CC(=O)N1CCC[C@H]1[C@H](OC)[C@@H](C)C(=O)N[C@H](CO)Cc1ccccc1)OC)N(C)C(=O)[C@@H](NC(=O)[C@@H]1COC(=O)N1C)C(C)C [Example 36] (X8-V[Dil][Dolaproine][Phe(ol)])")
2.29

Tell me the measured log10 of IC50 of CC[C@H](C)[C@@H]([C@@H](CC(=O)N1CCC[C@H]1[C@H](OC)[C@@H](C)C(=O)N[C@H](C)[C@@H](O)c1ccccc1)OC)N(C)C(=O)[C@@H](NC(=O)[C@@H](N)C(C)(C)O)C(C)C [Example 28] (H-[Val(3-OH)]V[Dil][Dolaproine]-X1) , please.
1.45
